experimentalDetails: Bioavailability in Sprague-Dawley rat by HPLC-MS/MS analysis
Assay type: ADME, organism-based
settings: in vivo
readout: bioavailability (%)

Some solved entries appear below for comparison.
O=C(CN1CCN(c2cccc3c2cnn3-c2ccccc2F)C1=O)N1CCCC1
94
O=C(CN1CCN(c2cccc3c2cnn3-c2ccccc2F)C1=O)N1CC[C@H](F)C1
83

a = O=C1NCCN1CCOc1nn(-c2ccccc2F)c2ccc(F)cc12
b = O=c1[nH]ccn1CCOc1nn(-c2ccccc2F)c2ccc(F)cc12
c = CC(C)CC(=O)CN1CCN(c2cccc3c2cnn3-c2ccccc2F)C1=O
d = O=C1NCCN1CCOc1nn(-c2ccc(F)cc2)c2ccc(F)cc12
q: Falling order of bioavailability, please. Present the labels in the sequence the task asks for.
a: c, d, b, a
(c: 82%, d: 54%, b: 35%, a: 17%)
